Recorded log10 of TGI for the following compounds
Test system: HCT-116 colon
assay-procedure: NCI tumour cell line growth inhibition, 48 h
readout-name: log10 of TGI (log10 of the value in µM)

• O=C(CCCN1CCC(C(O)c2ccc(F)cc2)CC1)c1ccc(F)cc1 (stereo not given) = 2.06
• CC(=O)Nc1n[n+]([O-])c2cc(C)ccc2[n+]1[O-] = 1.13
• CN1CCN(c2nc(-c3csc(-c4cccs4)n3)cc3ccccc23)CC1 = 0.53
• O=C1/C(=C/c2ccc(O)cc2)COc2ccc(O)c(O)c21 = 0.53
• Cc1ccc(-n2nnnc2-c2cnc(N3CCOCC3)nc2-c2cccc(C(F)(F)F)c2)cc1 = 0.71

----------
System: MALME-3M melanoma
assay-procedure: NCI tumour cell line growth inhibition, 48 h; in the data active = GI50 below about 0.43 µM; inactive = the rest
Outcome codes: Yes = active, No = inactive

* CC(C)(C)OC(=O)NCc1cccc(N=C=S)c1 | No
* NC(CSSCC(N)C(=O)O)C(=O)O (configuration not stated) | No
* Cn1cc(C2=C(Nc3ccccc3)C(=O)NC2=O)c2ccccc21 | No
* C[C@@H](CO)NC(=O)c1cc(-c2ccc(Cl)cc2)nn(-c2cnn(C)c2)c1=O | No
* O=C1CC/C(=C/COc2cc(=O)oc3ccccc23)O1 | No
* COC(=O)[C@H](Cc1cn(C)cn1)NC(=O)[C@H](C)NC(=O)Nc1cc(C(F)(F)F)cc(C(F)(F)F)c1 | No
* Cc1cc(O)c(C2=NN(c3ccc(S(N)(=O)=O)cc3)C(/C=C/c3ccccc3)C2)cc1Cl (configuration not stated) | No
* CC1(C)Cc2c(Br)c(Br)c(Br)c(OCC(O)CN3CCN(c4ccccn4)CC3)c2O1 (configuration not stated) | No
* Cc1nc2ccccc2nc1N=Nc1ccccc1 | No
* Cc1cccc2c3c(sc12)C(c1ccc(F)cc1)C(C#N)=C(N)O3 (configuration not stated) | Yes
* CC(=O)/C=C/c1ccc(OCc2ccc(Cl)cc2)cc1 | No
* N#CC(C#N)=C/C=C(\Sc1ccc(F)cc1Cl)c1ccc(Cl)cc1 | Yes
* COc1cc(C)c2sc3ccccc3c(=O)c2c1NCCN(C)C | No
* CN1CCN(c2nc(-c3csc(-c4cccs4)n3)cc3ccccc23)CC1 | No
* O=C1N(Cc2ccccc2Cl)c2ccccc2C12NN=C(c1cccc(Cl)c1)S2 (configuration not stated) | No
* CCSC[C@@H]1C[C@](O)(c2ccc(F)cc2)[C@@H](c2ccc(F)cc2)O1 | No
* CCCCOC1OC(COC(=O)C(C)C)C(OC(=O)C(C)C)C(O)C1OC1OC(C)C(OC(=O)CCC)C(OC(=O)C(C)C)C1O (configuration not stated) | No

----------
Test system: A498 renal
assay-procedure: NCI tumour cell line growth inhibition, 48 h
readout-name: log10 of TGI (log10 of the value in µM)

- Cc1c2c(c(C)c3c1[nH]c1ccccc13)CN(C)CC2: 1.77
- CC(C)(C)N/N=C(\C(=O)NC1=C(Cl)C(=O)c2ccccc2C1=O)C1C=CCS1(=O)=O (stereo unspecified): 1.56
- COc1cc2c(cc1OC)C(=O)/C(=C/c1cc(C)cc(C)c1)C2: 1.68
- CC1(C)Cc2c(Br)c(Br)c(Br)c(OCC(O)CN3CCN(c4ccccn4)CC3)c2O1 (stereo unspecified): 1.47
- COC(=O)C1OC(O[C@H]2CC[C@]3(C)[C@H]4CC=C5[C@@H]6CC(C)(C)CC[C@]6(C(=O)OC6OCC(O)C(O)C6OC6OC(C)C(OC7OCC(O)C(O)C7O)C(OC7OCC(O)(CO)C7O)C6O)[C@H](O)C[C@@]5(C)[C@]4(C)CC[C@H]3C2(C)C)C(O)C(O)C1O (stereo partly specified): 0.52
- O=C(O)[C@H](CCC[C@H]1C(=O)O[C@H](c2ccccc2)[C@H](c2ccccc2)N1C(=O)OCc1ccccc1)N[C@@H](c1ccccc1)[C@H](O)c1ccccc1: 1.79
- CC(=O)Nc1n[n+]([O-])c2cc(C)ccc2[n+]1[O-]: 1.29
- Cc1cccc2c3c(sc12)C(c1ccc(F)cc1)C(C#N)=C(N)O3 (stereo unspecified): -0.50
- CC1OC(CC(=O)O)CC2=C1C(=O)c1c(O)cccc1C2=O (stereo unspecified): 0.37
- COc1cc2c(c(OC)c1OC)-c1ccc(N=NC(N)=S)c(=O)cc1[C@@H](NC(C)=O)CC2: 0.50
- CCCCCCNCc1cc(C(C)(C)C)cc(CNCCCCCC)c1O: 0.54
- Cc1ccc2nc(-c3ccc(C(C)(C)C)cc3)oc(=O)c2c1: 1.80
- COc1cc2c(/C=C3/C(=O)N(C)c4ccc(O)cc43)c(Cl)[nH]c2cc1C: 0.73
- O=C(O)c1nc2ccc(C(F)(F)F)cc2nc1Nc1ccc(F)cc1: 1.58
- C/C(=N\NC(=S)N1CCCCCC1)c1cccc2cccnc12: 1.74
- O=[N+]([O-])c1cc([N+](=O)[O-])c(Cl)cc1Cl: 0.65
- COc1cc(-c2c3c(cc4c2OCO4)[C@@H](Nc2ccc(-c4ccc(-c5ccc(N[C@@H]6c7cc8c(cc7C(c7cc(OC)c(O)c(OC)c7)[C@H]7C(=O)OC[C@H]67)OCO8)cc5)cc4)cc2)[C@H]2COC(=O)[C@@H]2C3)cc(OC)c1O (stereo partly specified): 1.33
- COc1ccc(CCN2CCC(CN(C)Cc3cnn(-c4ccccc4)c3)CC2)cc1: 0.89

----------
Tested on: IGROV1 ovarian
assay-procedure: NCI tumour cell line growth inhibition, 48 h
readout-name: TGI

• c1ccc2c(c1)cc1n2CCc2c-1[nH]c1ccccc21 = > 10 µM
• O=C1N(Cc2ccccc2Cl)c2ccccc2C12NN=C(c1cccc(Cl)c1)S2 (stereo unspecified) = 3.75 µM
• N#CC1=C(O)NC(O)=C(C#N)C1c1ccc(C2C(C#N)=C(O)NC(O)=C2C#N)cc1 = > 100 µM
• CCCCOP(C)(=O)C(NC(=O)OCC)(C(F)(F)F)C(F)(F)F (stereo unspecified) = > 100 µM
• O=c1c(Cc2ccc(Cl)cc2)nnc2sc(-c3ccc(-c4ccc(Cl)cc4Cl)o3)nn12 = > 100 µM
• CC12CCC(CC1)C(C)(C)O2 = 86.3 µM
• CCc1c(-c2ccc(OC)cc2)oc(OC)c(C)c1=O = > 100 µM
• O=C(/C=C(\C(=O)c1cccs1)c1cccs1)c1ccc(C(=O)/C=C(\C(=O)c2cccs2)c2cccs2)cc1 = > 100 µM
• CC1SC2(CCCCC2)N(NC(=O)c2[nH]c3ccc(Br)cc3c2-c2ccccc2)C1=O (stereo unspecified) = 28.4 µM
• Brc1cccc(C2ON=C(c3ccccc3)N2C23CC4CC(CC(C4)C2)C3)c1 (stereo unspecified) = > 10 µM
• CCC(C)C(=O)OCC(=O)c1ccc(-c2ccccc2)cc1 (stereo unspecified) = > 100 µM

----------
Test system: EKVX NSCLC
assay-procedure: NCI tumour cell line growth inhibition, 48 h
readout-name: TGI (µM)

• O=C(CC1C=Cc2ccccc2N1C(=O)c1ccccc1)c1ccccc1 (stereo not drawn) = 47.4
• CC(=O)Nc1n[n+]([O-])c2cc(C)ccc2[n+]1[O-] = 16.8
• COc1cnc2c(c1)C(=O)c1c-2n(CCCN2CCC(O)CC2)c(=O)c2cc(Cl)ccc12 = 5.85
• Cc1cc(O)c(C2=NN(c3ccc(S(N)(=O)=O)cc3)C(/C=C/c3ccccc3)C2)cc1Cl (stereo not drawn) = 35.3
• COC(=O)C1OC(O[C@H]2CC[C@]3(C)[C@H]4CC=C5[C@@H]6CC(C)(C)CC[C@]6(C(=O)OC6OCC(O)C(O)C6OC6OC(C)C(OC7OCC(O)C(O)C7O)C(OC7OCC(O)(CO)C7O)C6O)[C@H](O)C[C@@]5(C)[C@]4(C)CC[C@H]3C2(C)C)C(O)C(O)C1O (stereo partly drawn) = 8.21
• O=c1c2cc3c(cc2c2cccc4c2n1CCC4)OCO3 = 99.5

----------
Test system: ACHN renal
assay-procedure: NCI tumour cell line growth inhibition, 48 h
readout-name: TGI

- COCCOCCOCCOc1cccc2c1C(=O)c1cccc(OCCOCCOCCOC)c1C2=O: > 100 µM
- CC(=O)OCC1OC(n2c(Br)nc3c2c(=O)n(C)c(=O)n3C)C(OC(C)=O)C1OC(C)=O (stereo not drawn): > 100 µM
- O=C(/C(=C\I)c1ccccc1)c1ccccc1: 25.7 µM
- CC1SC2(CCCCC2)N(NC(=O)c2[nH]c3ccc(Br)cc3c2-c2ccccc2)C1=O (stereo not drawn): > 100 µM
- CC(=O)OC1[C@H](OC(C)=O)C2=C(C)[C@@H](OC(C)=O)C[C@@]2(C(C)(C)O)[C@@H](OC(C)=O)[C@H]2[C@@]1(C)[C@@H](OC(C)=O)CC(OC(C)=O)[C@]21CO1 (stereo partly drawn): > 100 µM
- CCCCOC(=O)C1CC[C@H]2[C@@H]3CCc4cc(OC(=O)c5cccc6c(=O)c7ccccc7[nH]c56)ccc4[C@H]3CC[C@]12C (stereo partly drawn): 15.6 µM
- COC1C(N(C)C)=C(c2ccccc2)C(=O)N2CCc3ccccc3C12 (stereo not drawn): > 100 µM
- CCCCCCCCCCCc1c(O)c(=O)c2c(oc3c(=O)c(CCCCCCCCCCC)c(O)c(=O)c3n2-c2ccc(N(C)C)cc2)c1=O: 42.8 µM
